Biological target: Neuronal acetylcholine receptor subunit alpha-7 (Homo sapiens, UniProt P36544)
Sequence (P36544 whole entry): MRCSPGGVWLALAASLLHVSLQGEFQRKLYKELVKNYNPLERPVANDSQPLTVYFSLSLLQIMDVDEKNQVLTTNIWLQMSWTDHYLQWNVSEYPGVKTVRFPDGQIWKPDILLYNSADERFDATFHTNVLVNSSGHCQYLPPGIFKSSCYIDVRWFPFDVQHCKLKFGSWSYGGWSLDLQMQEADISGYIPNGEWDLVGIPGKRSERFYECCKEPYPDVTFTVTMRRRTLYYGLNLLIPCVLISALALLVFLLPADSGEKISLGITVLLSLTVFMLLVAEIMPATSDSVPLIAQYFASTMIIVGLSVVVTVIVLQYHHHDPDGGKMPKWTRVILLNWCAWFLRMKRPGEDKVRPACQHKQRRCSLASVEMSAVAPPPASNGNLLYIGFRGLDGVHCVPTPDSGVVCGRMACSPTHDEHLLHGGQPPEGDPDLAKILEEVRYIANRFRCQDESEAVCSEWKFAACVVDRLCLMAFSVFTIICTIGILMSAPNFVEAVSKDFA
Assay: Displacement of [3H]epibatidine from alpha7 nicotinic receptor expressed in human HEK293 cells
OUTCOME MEASURE: Ki

Looking up CS(=O)(=O)Nc1cncc(-c2ccccc2O[C@H]2C[C@@H]3CNC[C@H]2C3)c1.Cl , I found its Ki recorded as 4.78 µM

Looking up CS(=O)(=O)Nc1ccncc1-c1ccccc1O[C@H]1C[C@@H]2CNC[C@H]1C2.Cl (racemic) , I found its Ki recorded as 7.59 µM

Looking up Cl.Nc1cncc(-c2ccccc2O[C@H]2C[C@@H]3CNC[C@H]2C3)c1 (racemic) , I found its Ki recorded as > 15 µM

Looking up CC(=O)Nc1cncc(-c2ccccc2O[C@H]2C[C@@H]3CNC[C@H]2C3)c1.Cl (racemic) , I found its Ki recorded as > 15 µM

Looking up CS(=O)(=O)Nc1cncc(-c2ccccc2O[C@H]2C[C@@H]3CNC[C@H]2C3)c1.Cl (racemic) , I found its Ki recorded as 4.75 µM

Looking up Cl.Fc1cncc(-c2ccccc2O[C@H]2C[C@@H]3CNC[C@H]2C3)c1 (racemic) , I found its Ki recorded as > 13.5 µM

Looking up Cl.NC(=O)c1cncc(-c2ccccc2O[C@H]2C[C@@H]3CNC[C@H]2C3)c1 (stereo in doubt) , I found its Ki recorded as > 15 µM

Taken from ChEMBL document CHEMBL1208792.
